- protocolNotes: in vivo
- protocolConditions: male, beagle, dog, iv, 0.5 mg/kg, Cl
Where a name gives a salt, the structure may show the parent alone.
reportedEndpoint: clearance

[in] Look at this molecule and give its reported clearance. O=C(O)c1ccc(-c2ccc(/C=C3\SC(=S)N(Cc4ccccc4)C3=O)o2)cc1 [LA1 choline salt]
[out] 0.0065 mL/min

* * *

- protocolNotes: in vivo
- protocolConditions: male, beagle, dog, iv, 0.5 mg/kg, Plasma concentration
Counter-ions that a name gives are not always drawn.
reportedEndpoint: concentration at 0.25 h (ng/mL)
Reply numerically in ng/mL, unit not repeated.

[in] Using the record for O=C(O)c1ccc(-c2ccc(/C=C3\SC(=S)N(Cc4ccccc4)C3=O)o2)cc1 [LA1 choline salt] , report its concentration at 0.25 h.
[out] 987
